These measurements were taken from patent US20260209222A1.

Recorded Cbl-b/c-Cbl Selectivity, one value per entry.
Tested on: Recombinant human c-Cbl (aa 47-435)
Assay: c-Cbl Biochemical Assay (TR-FRET)
Settings: ratio from the Cbl-b and c-Cbl TR-FRET biochemical assays
Procedure: c-Cbl Biochemical Assay (TR-FRET) Recombinant human c-Cbl (aa 47-435) was expressed in E coli, purified and biotinylated in vitro. […] The enzyme reaction was terminated and the binding reaction was initiated by adding 10p of binding assay mix to all wells and incubating the plate at RT for 60 min prior to assay read. […] The HTRF assay signal was measured at 520 nm on an Envision plate reader, with reference signal at 485 or 620 nm. […]

>  <COMPOUND>
Cn1cnnc1-c1cc(F)ccc1-c1cc(NCCC#N)nc(-c2nc3cc(CO)cc(C(F)(F)F)c3o2)c1

>  <TESTED_TARGET>
Recombinant human c-Cbl (aa 47-435)

>  <Cbl-b/c-Cbl Selectivity>
7

$$$$
>  <COMPOUND>
C[C@H]1CCCN(Cc2cc(C(F)(F)F)c3oc(-c4cccc(C(c5nncn5C)C5COC5)c4)nc3c2)C1 (some centres unmarked)

>  <TESTED_TARGET>
Recombinant human c-Cbl (aa 47-435)

>  <Cbl-b/c-Cbl Selectivity>
7

$$$$
>  <COMPOUND>
C[C@H]1CCCN(Cc2cc(C(F)(F)F)c3oc(-c4cccc([C@@H](c5nncn5C)C5CCC5)c4)nc3c2)C1

>  <TESTED_TARGET>
Recombinant human c-Cbl (aa 47-435)

>  <Cbl-b/c-Cbl Selectivity>
4

$$$$
>  <COMPOUND>
CCNc1cc(-c2cc(C#N)ccc2-c2nncn2C)cc(-c2nc3cc(CNCC4(C#N)CCCC4)cc(C(F)(F)F)c3o2)n1

>  <TESTED_TARGET>
Recombinant human c-Cbl (aa 47-435)

>  <Cbl-b/c-Cbl Selectivity>
8

$$$$
>  <COMPOUND>
Cn1cnnc1[C@H](c1cccc(-c2nc3cc(CN4CCC5(CCC5)C4)cc(C(F)(F)F)c3o2)c1)[C@H]1C[C@H](C(F)(F)F)C1

>  <TESTED_TARGET>
Recombinant human c-Cbl (aa 47-435)

>  <Cbl-b/c-Cbl Selectivity>
2

$$$$
>  <COMPOUND>
Cn1cnnc1[C@@H](c1cccc(-c2nc3cc(CN4CCC5(CCC5)C4)cc(C(F)(F)F)c3o2)c1)[C@H]1C[C@@H](C(F)(F)F)C1

>  <TESTED_TARGET>
Recombinant human c-Cbl (aa 47-435)

>  <Cbl-b/c-Cbl Selectivity>
13

$$$$
>  <COMPOUND>
Cn1cnnc1-c1cc(F)ccc1-c1cc(NCCC#N)nc(-c2nc3cc(CN4CCC5(CC5)C4)cc(C(F)(F)F)c3o2)c1

>  <TESTED_TARGET>
Recombinant human c-Cbl (aa 47-435)

>  <Cbl-b/c-Cbl Selectivity>
7

$$$$
>  <COMPOUND>
CN(Cc1cc(C(F)(F)F)c2oc(-c3cccc([C@]4(c5nncn5C)C[C@@H](C)C4)c3)nc2c1)CC1CCC1

>  <TESTED_TARGET>
Recombinant human c-Cbl (aa 47-435)

>  <Cbl-b/c-Cbl Selectivity>
10

$$$$
>  <COMPOUND>
Cn1cnnc1-c1ccc(C#N)cc1-c1cc(NCCC#N)nc(-c2nc3cc(CN4CCC5(CC5)C4)cc(C(F)(F)F)c3o2)c1

>  <TESTED_TARGET>
Recombinant human c-Cbl (aa 47-435)

>  <Cbl-b/c-Cbl Selectivity>
7

$$$$
>  <COMPOUND>
CC(C)NCc1cc(C(F)(F)F)c2oc(-c3cccc([C@]4(c5nncn5C)C[C@@H](C)C4)c3)nc2c1

>  <TESTED_TARGET>
Recombinant human c-Cbl (aa 47-435)

>  <Cbl-b/c-Cbl Selectivity>
12

$$$$
>  <COMPOUND>
Cn1cnnc1-c1ccc(C#N)cc1-c1cc(NCCC#N)nc(-c2nc3cc(CNCC(C)(C)O)cc(C(F)(F)F)c3o2)c1

>  <TESTED_TARGET>
Recombinant human c-Cbl (aa 47-435)

>  <Cbl-b/c-Cbl Selectivity>
7

$$$$
>  <COMPOUND>
Cn1cnnc1[C@]1(c2cccc(-c3nc4cc(CN5CCC6(CC6)C5)cc(C(F)(F)F)c4o3)c2)C[C@H](C)C1

>  <TESTED_TARGET>
Recombinant human c-Cbl (aa 47-435)

>  <Cbl-b/c-Cbl Selectivity>
18

$$$$
>  <COMPOUND>
C[C@H]1CCCN(Cc2cc(C(F)(F)F)c3oc(-c4cccc([C@H](c5nncn5C)C5CCC5)c4)nc3c2)C1 (single isomer, unassigned)

>  <TESTED_TARGET>
Recombinant human c-Cbl (aa 47-435)

>  <Cbl-b/c-Cbl Selectivity>
10

$$$$
>  <COMPOUND>
CN(Cc1cc(C(F)(F)F)c2oc(-c3cc(-c4cc(C#N)ccc4-c4nncn4C)cc(NCC4(CC#N)CC4)n3)nc2c1)[C@@H]1CCC[C@@H]1O

>  <TESTED_TARGET>
Recombinant human c-Cbl (aa 47-435)

>  <Cbl-b/c-Cbl Selectivity>
3

$$$$
